meta.source: PubChem BioAssay AID2060904

test system: 349418-098-R-PDC complex spheroid viability; assay: Anticancer human tumor 349418-098-R-PDC patient-derived lung adenocarcinoma cell line growth inhibition [RAS]; details: second compound 0.00949 µM; first compound 0.00316 µM; active compounds read low
Below, each entry is listed with its recorded viability, T/C.
MEASUREMENT TYPE: viability, T/C (%)

compound="C=CC(=O)Nc1cc(Nc2nccc(-c3cn(C)c4ccccc34)n2)c(OC)cc1N(C)CCN(C)C + CCn1c(-c2cccnc2C(C)OC)c2c3cc(ccc31)N1CCOC(CC(NC(=O)C(C(C)C)N(C)C(=O)C3(F)CCN(C(=O)C#CC(C)(C)N(C)C)CC3)C(=O)N3CCCC(N3)C(=O)OCC(C)(C)C2)C1" measurement_type="viability, T/C" val=109
compound="CC(C)n1nc(-c2ccc3oc(N)nc3c2)c2c(N)ncnc21 + CCn1c(-c2cccnc2C(C)OC)c2c3cc(ccc31)N1CCOC(CC(NC(=O)C(C(C)C)N(C)C(=O)C3(F)CCN(C(=O)C#CC(C)(C)N(C)C)CC3)C(=O)N3CCCC(N3)C(=O)OCC(C)(C)C2)C1" measurement_type="viability, T/C" val=42.7
compound="Nc1ccn(C2OC(CO)C(O)C2(F)F)c(=O)n1 (centres undefined) + CCn1c(-c2cc(N3CCN(C)CC3)cnc2C(C)OC)c2c3cc(ccc31)-c1csc(n1)CC(NC(=O)C1CC1C)C(=O)N1CCCC(N1)C(=O)OCC(C)(C)C2" measurement_type="viability, T/C" val=24.4
compound="CC(C)n1nc(-c2ccc3oc(N)nc3c2)c2c(N)ncnc21 + CCn1c(-c2cc(N3CCN(C)CC3)cnc2C(C)OC)c2c3cc(ccc31)-c1csc(n1)CC(NC(=O)C1CC1C)C(=O)N1CCCC(N1)C(=O)OCC(C)(C)C2" measurement_type="viability, T/C" val=46.3

---

test system: 349418-098-R-PDC complex spheroid viability; assay: Anticancer human tumor 349418-098-R-PDC cell line growth inhibition [RAS]; conditions: second compound 0.003 µM; first compound 1 µM; active compounds read low;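 further: spheroids exposed to compound for seven days before viability readout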
viability, T/C overview
MEASUREMENT TYPE: viability, T/C (%)

compound="C[C@@H](NC(=O)c1ncnc(N)c1Cl)c1ncc(C(=O)Nc2cc(C(F)(F)F)c(Cl)cn2)s1 + CCn1c(-c2cc(N3CCN(C)CC3)cnc2C(C)OC)c2c3cc(ccc31)-c1csc(n1)CC(NC(=O)C1CC1C)C(=O)N1CCCC(N1)C(=O)OCC(C)(C)C2" measurement_type="viability, T/C" unit_name=% val=54.5
compound="Cc1nc(N2CCC3(CC2)COC(C)C3N)c(CO)nc1Sc1ccnc(N)c1Cl (centres undefined) + CCn1c(-c2cccnc2C(C)OC)c2c3cc(ccc31)N1CCOC(CC(NC(=O)C(C(C)C)N(C)C(=O)C3(F)CCN(C(=O)C#CC(C)(C)N(C)C)CC3)C(=O)N3CCCC(N3)C(=O)OCC(C)(C)C2)C1" measurement_type="viability, T/C" unit_name=% val=96.7
compound="Cc1nc(N2CCC3(CC2)COC(C)C3N)c(CO)nc1Sc1ccnc(N)c1Cl (centres undefined) + CCn1c(-c2cc(N3CCN(C)CC3)cnc2C(C)OC)c2c3cc(ccc31)-c1csc(n1)CC(NC(=O)C1CC1C)C(=O)N1CCCC(N1)C(=O)OCC(C)(C)C2" measurement_type="viability, T/C" unit_name=% val=103
compound="C[C@@H](NC(=O)c1ncnc(N)c1Cl)c1ncc(C(=O)Nc2cc(C(F)(F)F)c(Cl)cn2)s1 + CCn1c(-c2cccnc2C(C)OC)c2c3cc(ccc31)N1CCOC(CC(NC(=O)C(C(C)C)N(C)C(=O)C3(F)CCN(C(=O)C#CC(C)(C)N(C)C)CC3)C(=O)N3CCCC(N3)C(=O)OCC(C)(C)C2)C1" measurement_type="viability, T/C" unit_name=% val=58.2

---

Entries annotated with measured viability, T/C
system: 349418-098-R-PDC complex spheroid viability; test: Anticancer human tumor 349418-098-R-PDC cell line growth inhibition [RAS]; conditions: second compound 0.3 µM; first compound 0.000949 µM; active compounds read low;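 further: spheroids exposed to compound for seven days before viability readout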
MEASUREMENT TYPE: viability, T/C (%)

molecule="CC1(C)CCC(Nc2ncc(C(F)(F)F)c(-c3c[nH]c4c(P(C)(C)=O)c(C#N)ccc34)n2)CN1 (centres undefined) + CCn1c(-c2cccnc2C(C)OC)c2c3cc(ccc31)N1CCOC(CC(NC(=O)C(C(C)C)N(C)C(=O)C3(F)CCN(C(=O)C#CC(C)(C)N(C)C)CC3)C(=O)N3CCCC(N3)C(=O)OCC(C)(C)C2)C1" val=55.7
molecule="CC1(C)CCC(Nc2ncc(C(F)(F)F)c(-c3c[nH]c4c(P(C)(C)=O)c(C#N)ccc34)n2)CN1 (centres undefined) + CCn1c(-c2cc(N3CCN(C)CC3)cnc2C(C)OC)c2c3cc(ccc31)-c1csc(n1)CC(NC(=O)C1CC1C)C(=O)N1CCCC(N1)C(=O)OCC(C)(C)C2" val=53.6
molecule="CCc1c2c(nc3ccc(O)cc13)-c1cc3c(c(=O)n1C2)COC(=O)[C@]3(O)CC + CCn1c(-c2cccnc2C(C)OC)c2c3cc(ccc31)N1CCOC(CC(NC(=O)C(C(C)C)N(C)C(=O)C3(F)CCN(C(=O)C#CC(C)(C)N(C)C)CC3)C(=O)N3CCCC(N3)C(=O)OCC(C)(C)C2)C1" val=65.3
molecule="CCc1c2c(nc3ccc(O)cc13)-c1cc3c(c(=O)n1C2)COC(=O)[C@]3(O)CC + CCn1c(-c2cc(N3CCN(C)CC3)cnc2C(C)OC)c2c3cc(ccc31)-c1csc(n1)CC(NC(=O)C1CC1C)C(=O)N1CCCC(N1)C(=O)OCC(C)(C)C2" val=87.1

---

// reported viability, T/C for each item listed
test system: 349418-098-R-PDC complex spheroid viability; assay: Anticancer human tumor 349418-098-R-PDC cell line growth inhibition [RAS]; conditions: second compound 0.00949 µM; first compound 10 µM; active compounds read low;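 further: spheroids exposed to compound for seven days before viability readout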
MEASUREMENT TYPE: viability, T/C (%)

compound="Cc1nc(N2CCC3(CC2)COC(C)C3N)c(CO)nc1Sc1ccnc(N)c1Cl (centres undefined) + CCn1c(-c2cc(N3CCN(C)CC3)cnc2C(C)OC)c2c3cc(ccc31)-c1csc(n1)CC(NC(=O)C1CC1C)C(=O)N1CCCC(N1)C(=O)OCC(C)(C)C2" measurement_type="viability, T/C" val=115
compound="CC(Nc1ccc2c(c1)OCCn1cc(N3C(=O)OCC3C(F)F)nc1-2)C(N)=O (centres undefined) + CCn1c(-c2cccnc2C(C)OC)c2c3cc(ccc31)N1CCOC(CC(NC(=O)C(C(C)C)N(C)C(=O)C3(F)CCN(C(=O)C#CC(C)(C)N(C)C)CC3)C(=O)N3CCCC(N3)C(=O)OCC(C)(C)C2)C1" measurement_type="viability, T/C" val=11.8
compound="Cc1nc(N2CCC3(CC2)COC(C)C3N)c(CO)nc1Sc1ccnc(N)c1Cl (centres undefined) + CCn1c(-c2cccnc2C(C)OC)c2c3cc(ccc31)N1CCOC(CC(NC(=O)C(C(C)C)N(C)C(=O)C3(F)CCN(C(=O)C#CC(C)(C)N(C)C)CC3)C(=O)N3CCCC(N3)C(=O)OCC(C)(C)C2)C1" measurement_type="viability, T/C" val=90.5
compound="CC(C)NCC(C(=O)N1CCN(c2ncnc3c2C(C)CC3O)CC1)c1ccc(Cl)cc1 (centres undefined) + CCn1c(-c2cc(N3CCN(C)CC3)cnc2C(C)OC)c2c3cc(ccc31)-c1csc(n1)CC(NC(=O)C1CC1C)C(=O)N1CCCC(N1)C(=O)OCC(C)(C)C2" measurement_type="viability, T/C" val=14.8

---

In this section, each of the compounds is paired with its reported viability, T/C.
tested on: 349418-098-R-PDC complex spheroid viability; experiment: Anticancer human tumor 349418-098-R-PDC cell line growth inhibition [RAS]; settings: second compound 3.16 µM; first compound 3.16 µM; active compounds read low;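 further: spheroids exposed to compound for seven days before viability readout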
MEASUREMENT TYPE: viability, T/C (%)

compound="CC(Nc1ccc2c(c1)OCCn1cc(N3C(=O)OCC3C(F)F)nc1-2)C(N)=O (stereo not drawn) + C#Cc1c(F)ccc2cc(O)cc(-c3ncc4c(N5CC6CCC(C5)N6)nc(OCC56CCCN5CC(F)C6)nc4c3F)c12" val=12.8
compound="NC1c2ccccc2OC12CCN(c1cnc3c(N4CCCc5ncccc54)n[nH]c3n1)CC2 (stereo not drawn) + C#Cc1c(F)ccc2cc(O)cc(-c3ncc4c(N5CC6CCC(C5)N6)nc(OCC56CCCN5CC(F)C6)nc4c3F)c12" val=84.9
compound="CC(C)NCC(C(=O)N1CCN(c2ncnc3c2C(C)CC3O)CC1)c1ccc(Cl)cc1 (stereo not drawn) + C#Cc1c(F)ccc2cc(O)cc(-c3ncc4c(N5CC6CCC(C5)N6)nc(OCC56CCCN5CC(F)C6)nc4c3F)c12" val=19.7
